Measured IC50, listed per entry.
- Test System: Zinc finger protein GLI1 (Homo sapiens, UniProt P08151)
- Sequence (P08151 whole entry): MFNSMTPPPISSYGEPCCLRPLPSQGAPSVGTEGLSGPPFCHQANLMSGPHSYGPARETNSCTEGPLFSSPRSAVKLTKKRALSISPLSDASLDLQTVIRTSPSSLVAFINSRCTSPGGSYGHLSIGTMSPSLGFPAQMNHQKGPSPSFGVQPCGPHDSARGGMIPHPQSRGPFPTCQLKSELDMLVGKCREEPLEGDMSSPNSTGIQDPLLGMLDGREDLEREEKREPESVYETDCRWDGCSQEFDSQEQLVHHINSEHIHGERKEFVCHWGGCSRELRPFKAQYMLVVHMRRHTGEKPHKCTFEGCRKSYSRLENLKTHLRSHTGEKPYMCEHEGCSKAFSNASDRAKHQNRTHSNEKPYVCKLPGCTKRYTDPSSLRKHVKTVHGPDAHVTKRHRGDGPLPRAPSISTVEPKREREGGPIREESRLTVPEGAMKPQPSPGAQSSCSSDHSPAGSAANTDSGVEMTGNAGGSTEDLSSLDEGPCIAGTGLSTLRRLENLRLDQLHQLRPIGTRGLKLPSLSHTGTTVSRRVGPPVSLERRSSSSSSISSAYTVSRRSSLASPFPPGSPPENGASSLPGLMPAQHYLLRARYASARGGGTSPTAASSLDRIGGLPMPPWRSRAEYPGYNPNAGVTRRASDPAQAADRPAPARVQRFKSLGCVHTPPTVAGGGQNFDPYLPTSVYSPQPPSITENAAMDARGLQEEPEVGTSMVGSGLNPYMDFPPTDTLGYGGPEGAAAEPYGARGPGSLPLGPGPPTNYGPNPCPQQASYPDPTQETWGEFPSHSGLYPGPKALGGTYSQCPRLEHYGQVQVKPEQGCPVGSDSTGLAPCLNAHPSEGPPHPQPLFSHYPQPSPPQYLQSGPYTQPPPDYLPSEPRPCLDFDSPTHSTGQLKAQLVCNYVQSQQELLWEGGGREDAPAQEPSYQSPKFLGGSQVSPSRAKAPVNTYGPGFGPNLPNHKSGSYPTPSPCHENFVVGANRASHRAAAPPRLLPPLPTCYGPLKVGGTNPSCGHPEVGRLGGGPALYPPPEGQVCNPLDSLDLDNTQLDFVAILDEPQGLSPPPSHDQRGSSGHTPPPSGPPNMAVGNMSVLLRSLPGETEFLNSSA
- Test Summary: Inhibition of GLI1-mediated transcriptional activity in human HaCaT cells by luciferase based reporter gene assay

{"Structure As Smiles": "C=C(C)[C@@H]1CC[C@]2(C(=O)O)CC[C@]3(C)[C@H](CC[C@@H]4[C@@]5(C)[C@H](CO)[C@@H](O)C(C)(C)[C@@H]5CC[C@]43C)[C@@H]12", "IC50": "133 µM"}

Turning now to a further record.
Lookup result for "C=C(C)[C@@H]1CC[C@]2(C(=O)O)CC[C@]3(C)[C@H](CC[C@@H]4[C@@]5(C)[C@@H](C(=O)O)[C@H](O)C(C)(C)[C@@H]5CC[C@]43C)[C@@H]12" ; measured IC50: > 200 µM

Hey, just so you know, these numbers are from BindingDB's records for doi:10.1016/j.bmc.2008.09.053.
